# System: Italian ryegrass (Lolium multiflorum)
# PROTOCOL_TEXT: Test A preemergence, visual plant response rating
# Format: in vivo
# CONDITION_PARAMETERS: 125 g ai/ha, preemergence; 0 to 100 scale, 0 no effect, 100 complete control
READOUT_KIND: Ryegrass, Italian plant response rating
Could you keep your reply to the number by itself?

Query Ryegrass, Italian plant response rating for CON=C(c1ccccc1C1CC1)c1c(O)c(C)nn(C)c1=O [Compound 104]
90

Query Ryegrass, Italian plant response rating for CON=C(c1c(O)c(C)nn(C)c1=O)c1cccc2sccc12 [Compound 58]
70

Query Ryegrass, Italian plant response rating for C#CCO/N=C(/c1c(O)c(C)nn(C)c1=O)c1ccc(F)c2ccccc12 [Compound 109]
100

Query Ryegrass, Italian plant response rating for C=CCON=C(c1c(O)c(C)nn(C)c1=O)c1cc(Br)cc2ccccc12 [Compound 114]
70

Query Ryegrass, Italian plant response rating for CO/N=C(/c1c(OC(C)=O)c(Cl)nn(C)c1=O)c1cccc2ccccc12 [Compound 132]
0
